target: Src (Homo sapiens)
Sequence (P12931 whole entry): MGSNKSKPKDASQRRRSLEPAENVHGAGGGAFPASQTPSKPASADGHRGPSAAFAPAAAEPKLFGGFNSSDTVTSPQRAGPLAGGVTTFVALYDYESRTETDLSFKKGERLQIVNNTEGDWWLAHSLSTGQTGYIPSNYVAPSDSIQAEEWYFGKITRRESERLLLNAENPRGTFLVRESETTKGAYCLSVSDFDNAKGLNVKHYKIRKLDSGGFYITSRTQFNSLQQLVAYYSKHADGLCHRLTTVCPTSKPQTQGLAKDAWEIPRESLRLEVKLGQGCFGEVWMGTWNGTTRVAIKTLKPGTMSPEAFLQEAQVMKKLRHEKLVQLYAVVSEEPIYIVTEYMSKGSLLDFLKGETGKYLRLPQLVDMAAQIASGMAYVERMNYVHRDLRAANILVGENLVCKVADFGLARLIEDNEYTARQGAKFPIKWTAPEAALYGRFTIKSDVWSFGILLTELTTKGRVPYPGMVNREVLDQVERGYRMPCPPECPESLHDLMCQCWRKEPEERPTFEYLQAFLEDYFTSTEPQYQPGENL
endpoint: IC50

Input line: Lab request: please report IC50 under test system Src (Homo sapiens) for COc1cc(Cc2c[nH]c3ncccc23)ccc1OCc1ccc(Cl)cc1 [P-1247]
Output line: ≤ 10 µM

###

Please respond with reported pIC50 for every item in the list.
target: Kit (Homo sapiens, UniProt P10721); construct: P1332.N6 BI PTP KIT M552-K948-X COD; made in house; host or cells: E. coli BL21(DE3)RIL, co-expressed with PTP1B; experiment: c-kit biochemical assay (AlphaScreen or 33P-ATP); settings: under the test conditions employed; read-out: IC50 toward kinase Kit
Sequence (P10721 552-948): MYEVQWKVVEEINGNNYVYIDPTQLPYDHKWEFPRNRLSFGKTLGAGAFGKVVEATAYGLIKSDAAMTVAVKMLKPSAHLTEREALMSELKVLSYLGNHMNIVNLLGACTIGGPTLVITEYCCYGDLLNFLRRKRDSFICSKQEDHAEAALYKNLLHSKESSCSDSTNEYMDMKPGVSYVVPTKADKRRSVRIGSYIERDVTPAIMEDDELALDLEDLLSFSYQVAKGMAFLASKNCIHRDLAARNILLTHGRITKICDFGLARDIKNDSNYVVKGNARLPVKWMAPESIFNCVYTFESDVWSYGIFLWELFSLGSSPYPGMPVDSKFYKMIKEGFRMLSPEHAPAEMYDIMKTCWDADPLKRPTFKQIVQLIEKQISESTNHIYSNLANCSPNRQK
pIC50: −log10 of the molar value.

Input line: Form entry - test system: Kit (Homo sapiens, UniProt P10721); read-out: pIC50; molecule: CCOc1cc(Cc2c[nH]c3ncccc23)ccc1OCc1ccc(Cl)cc1 [P-1470]
Output line: ≥ 5.00

Input line: // query: COc1cc(Cc2c[nH]c3ncc(Cl)cc23)c(F)cc1OCCc1nc2ccccc2[nH]1 [P-2180]
Output line: ≥ 5.00

Input line: Check COc1cnc2[nH]cc(C(=O)c3c(F)ccc(OCC(F)(F)F)c3Cl)c2c1 [P-2149] too.
Output line: ≥ 5.00

Input line: Follow-up item: COCCOc1ccc(F)c(Cc2c[nH]c3ncc(Cl)cc23)c1Cl [P-2157]
Output line: ≥ 5.00

Input line: // repeat for COc1cc(Cc2c[nH]c3ncc(C)cc23)c(F)cc1OCc1nc2cc(Cl)ccc2[nH]1 [P-2184] and report
Output line: ≥ 5.00

Input line: What about COc1cc(Cc2c[nH]c3ncc(Cl)cc23)c(Cl)cc1OCc1ccc(Cl)cc1F [P-2167] ?
Output line: ≥ 5.00

Input line: Follow-up item: COc1cc(Cc2c[nH]c3ncccc23)ccc1OCc1c(F)cc(F)cc1F [P-1578]
Output line: ≥ 5.00

Input line: Follow-up item: Cn1cc(-c2cnc3[nH]cc(Cc4cc(F)c(OCc5nc6ccccc6[nH]5)cc4Cl)c3c2)cn1 [P-2109]
Output line: ≥ 5.00

Input line: And for Cc1nc(C)c(COc2cccc(C(=O)c3c[nH]c4ncc(Cl)cc34)c2OCC2CC2)s1 [P-2140] ?
Output line: ≥ 5.00

Input line: Again, but for N#Cc1cnc2[nH]cc(Cc3cc(F)c(OCc4nc5ccccc5[nH]4)cc3F)c2c1 [P-2185]
Output line: ≥ 5.00

Input line: Another molecule to look at: Cn1cc(-c2cnc3[nH]cc(Cc4c(F)ccc(OCC(F)(F)F)c4Cl)c3c2)cn1 [P-2146]
Output line: ≥ 5.00

Input line: What would you report for Cc1nc(COc2ccc(F)c(C(=O)c3c[nH]c4ncc(Cl)cc34)c2F)c(C)o1 [P-2164] ?
Output line: ≥ 5.00

Input line: What do we get for Cn1cc(-c2cnc3[nH]cc(Cc4cc(Cl)c(OCc5nc6ccccc6[nH]5)cc4F)c3c2)cn1 [P-2117] ?
Output line: ≥ 5.00

Input line: Would you kindly repeat that for COc1cc(Cc2c[nH]c3ncc(Cl)cc23)c(F)cc1OC(C)c1nc2ccccc2[nH]1 (stereo not drawn) [P-2110] ?
Output line: ≥ 5.00

Input line: Moving on to the next molecule: COCCOc1cnc2[nH]cc(Cc3cc(F)c(OCc4nc5ccccc5[nH]4)cc3F)c2c1 [P-2176]
Output line: ≥ 5.00

Input line: // query: Fc1cc(OCc2nc3ccccc3[nH]2)c(F)cc1Cc1c[nH]c2ncc(Cl)cc12 [P-2100]
Output line: ≥ 5.00

Input line: Quick one: COc1cc(Cc2c[nH]c3ncc(Cl)cc23)c(F)cc1OCc1nc2ccccc2n1C [P-2106]
Output line: ≥ 5.00

Input line: Another molecule: Fc1cc(Cc2c[nH]c3ncc(Cl)cc23)c(Cl)cc1OCc1cccnc1 [P-2156]
Output line: ≥ 5.00

Input line: // same read-out, input: COc1cnc2[nH]cc(Cc3cc(F)c(OCc4nc5ccccc5[nH]4)cc3F)c2c1 [P-2101]
Output line: ≥ 5.00

Input line: Another: COc1cnc2[nH]cc(Cc3ccc(OCc4ccc(Cl)cc4)c(OC)c3)c2c1 [P-1531]
Output line: ≥ 5.00

Input line: Next: CCOc1c(OCc2c(F)cc(F)cc2F)cccc1C(=O)c1c[nH]c2ncccc12 [P-2137]
Output line: ≥ 5.00

Input line: What about this molecule? COc1cc(Cc2c[nH]c3ncc(Cl)cc23)ccc1OCc1ccc(Cl)cc1 [P-1532]
Output line: ≥ 5.00

Input line: Next entry: Clc1ccc(COc2ccc(Cc3c[nH]c4ncccc34)cc2Cl)cc1 [P-1449]
Output line: ≥ 5.00

Input line: # iterate: Cn1ccnc1COc1ccc(F)c(C(=O)c2c[nH]c3ncc(Cl)cc23)c1F [P-2165]
Output line: ≥ 5.00
